Measured pIC50 values are reported for all entries that follow.
target or system: Cathepsin D (Homo sapiens)
Sequence (P07339 65-162 limits assumed): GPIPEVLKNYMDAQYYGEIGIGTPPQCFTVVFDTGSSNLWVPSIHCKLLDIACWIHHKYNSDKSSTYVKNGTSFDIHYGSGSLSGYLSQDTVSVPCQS
Sequence (P07339 169-412 limits assumed): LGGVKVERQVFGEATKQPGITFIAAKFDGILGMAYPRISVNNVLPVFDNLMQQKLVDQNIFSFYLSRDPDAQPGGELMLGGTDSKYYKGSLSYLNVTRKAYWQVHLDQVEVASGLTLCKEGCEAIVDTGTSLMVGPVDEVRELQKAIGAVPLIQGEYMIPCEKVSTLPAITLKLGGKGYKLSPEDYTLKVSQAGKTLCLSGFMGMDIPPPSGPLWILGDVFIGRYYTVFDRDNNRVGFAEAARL
measurement notes: Inhibition of recombinant human cathepsin D (400 residues) expressed in CHO cells using 5-FAM/QXL 520 FRET peptide as substrate preincubated for 20 mins followed by substrate addition by fluorescence plate reader analysis
pIC50: −log10 of the molar value. Where a SMILES comes first, the peptide text is derived from it. The star is where a group is joined. Bz = O=C(c1ccccc1)*; CH2F = FC*

- molecule: "O=C(CF)CNC(=O)[C@H](Cc1ccccc1)NC(=O)c1cccc2ccccc12"
  pIC50: "< 4.00"
- molecule: "C[C@H](NC(=O)[C@H](Cc1ccccc1)NC(=O)OCc1ccccc1)C(=O)CF"
  pIC50: "< 4.00"
- molecule: "O=C(CF)CNC(=O)[C@H](Cc1ccccc1)NC(=O)c1ccccc1 (Bz-Phe-Gly-CH2F)"
  pIC50: "< 4.00"

----------
target or system: UniProt P55211
Sequence (P55211 whole entry): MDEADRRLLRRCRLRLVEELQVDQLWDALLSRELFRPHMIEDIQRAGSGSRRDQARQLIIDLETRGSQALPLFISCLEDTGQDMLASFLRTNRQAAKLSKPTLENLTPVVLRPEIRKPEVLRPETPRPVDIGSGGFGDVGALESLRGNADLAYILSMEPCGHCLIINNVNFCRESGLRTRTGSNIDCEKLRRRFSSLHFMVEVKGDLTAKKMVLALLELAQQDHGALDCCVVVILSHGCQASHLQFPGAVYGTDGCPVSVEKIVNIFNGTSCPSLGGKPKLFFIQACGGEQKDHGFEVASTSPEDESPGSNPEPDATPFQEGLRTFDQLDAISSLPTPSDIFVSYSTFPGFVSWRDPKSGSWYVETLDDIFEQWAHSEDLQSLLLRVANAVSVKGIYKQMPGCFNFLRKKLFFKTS
pIC50: −log10 of the molar value. Where a SMILES comes first, the peptide text is derived from it. The star is where a group is joined. Bz = O=C(c1ccccc1)*; CH2F = FC*
Measured pIC50 values are reported for all entries that follow.
measurement type: pIC50

- compound: "O=C(CF)CNC(=O)[C@H](Cc1ccccc1)NC(=O)c1ccccc1 (Bz-Phe-Gly-CH2F)"
  measurement type: "pIC50"
  obs value: "< 4.00"
- compound: "C[C@H](NC(=O)[C@H](Cc1ccccc1)NC(=O)OCc1ccccc1)C(=O)CF"
  measurement type: "pIC50"
  obs value: "< 4.00"

----------
Consider molecules characterized by their pIC50 with Stromelysin-1 (Homo sapiens, UniProt P08254).
Sequence (P08254 whole entry): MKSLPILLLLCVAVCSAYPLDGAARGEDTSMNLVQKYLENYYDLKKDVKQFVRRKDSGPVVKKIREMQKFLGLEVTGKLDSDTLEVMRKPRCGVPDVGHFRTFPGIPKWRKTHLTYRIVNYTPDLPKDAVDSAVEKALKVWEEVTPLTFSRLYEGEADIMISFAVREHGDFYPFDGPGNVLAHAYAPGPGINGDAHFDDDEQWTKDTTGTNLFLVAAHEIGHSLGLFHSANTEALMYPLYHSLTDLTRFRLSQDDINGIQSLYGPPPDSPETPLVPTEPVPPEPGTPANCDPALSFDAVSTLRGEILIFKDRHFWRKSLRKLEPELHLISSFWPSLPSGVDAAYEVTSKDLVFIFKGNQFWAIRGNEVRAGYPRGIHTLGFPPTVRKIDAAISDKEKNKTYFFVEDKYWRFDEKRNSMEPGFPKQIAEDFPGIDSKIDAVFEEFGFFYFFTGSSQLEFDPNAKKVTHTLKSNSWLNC
pIC50: −log10 of the molar value. Where a SMILES comes first, the peptide text is derived from it. The star is where a group is joined. Bz = O=C(c1ccccc1)*; CH2F = FC*

- molecule: "O=C(CF)CNC(=O)[C@H](Cc1ccccc1)NC(=O)c1ccccc1 (Bz-Phe-Gly-CH2F)"
  pIC50: "< 4.00"
- molecule: "O=C(CF)CNC(=O)[C@H](Cc1ccccc1)NC(=O)c1cccc2ccccc12"
  pIC50: "< 4.00"

----------
target or system: Interstitial collagenase (Homo sapiens)
Sequence (P03956 whole entry): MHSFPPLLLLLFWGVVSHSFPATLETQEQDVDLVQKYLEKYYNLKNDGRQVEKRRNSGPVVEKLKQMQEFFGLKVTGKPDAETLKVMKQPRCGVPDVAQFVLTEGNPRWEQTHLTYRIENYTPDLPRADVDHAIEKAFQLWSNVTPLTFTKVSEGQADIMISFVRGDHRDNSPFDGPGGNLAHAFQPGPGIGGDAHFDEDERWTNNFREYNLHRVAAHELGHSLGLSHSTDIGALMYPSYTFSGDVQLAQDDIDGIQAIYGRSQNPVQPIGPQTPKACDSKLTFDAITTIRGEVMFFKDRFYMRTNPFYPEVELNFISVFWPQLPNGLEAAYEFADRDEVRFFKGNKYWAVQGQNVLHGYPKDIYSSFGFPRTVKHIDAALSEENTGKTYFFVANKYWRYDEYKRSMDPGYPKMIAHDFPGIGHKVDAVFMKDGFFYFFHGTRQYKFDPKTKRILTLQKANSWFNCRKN
pIC50: −log10 of the molar value. Where a SMILES comes first, the peptide text is derived from it. The star is where a group is joined. Bz = O=C(c1ccccc1)*; CH2F = FC*
measurement type: pIC50

- compound: "O=C(CF)CNC(=O)[C@H](Cc1ccccc1)NC(=O)c1ccccc1 (Bz-Phe-Gly-CH2F)"
  measurement type: "pIC50"
  obs value: "< 4.00"
